Parameter: melting point. Scope: all listed entries.

Line notation | Test result
CSc1cnc(NC(=O)c2ccccc2O)s1 | 225 to 226 °C
CSc1cnc(NC(=O)c2cccc(OC(C)=O)c2)s1 | 135.2 to 136.2 °C
CCCCS(=O)(=O)c1cnc(NC(=O)c2ccccc2O)s1 | 235 to 236 °C
CCCCSc1cnc(NC(=O)c2ccccc2OC(C)=O)s1 | 100 to 101 °C
CCCCSc1cnc(NC(=O)c2ccccc2O)s1 | 180 to 181 °C

*Q* Read off the recorded melting point for CS(=O)(=O)Oc1ccccc1C(=O)Nc1nccs1
*A* 185.5 to 187.8 °C

* * *

Test system: Wild-type HBV
Experimental details: 5-day transient transfection assay in Huh7 cells, intracellular HBV RI by Southern blot
Type: cell-based, Hepatitis B Virus
Assay setup: Hepatitis B virus, Huh-7
Readout: pEC50
Formally, pEC50 is defined as -log10 of the concentration c, with c in mol/L.

*Q* For the compound CC(=O)Oc1ccccc1C(=O)Nc1ncc([N+](=O)[O-])s1 [NTZ, nitazoxanide] , give its measured pEC50 value.
*A* 6.68

* * *

Tested on: Huh7 cells containing H/FL-Neo
Experimental details: Cytotoxicity by neutral red dye uptake in Huh7 cells containing H/FL-Neo
Format: cell-based
Assay setup: Genotype 1a replicon
Readout: CC50 (µM)
// units = µM; emit number, no label

*Q* Provide one value: measured CC50 of O=C(Nc1ncc(Br)s1)c1ccccc1O [RM4832]
*A* 88

* * *

Tested on: HCV replicon cells
Experimental details: Primary HCV replicon cell assay, cytotoxicity
Assay setup: primary assay
Readout: CC50 (µM)
Report the value in µM with no unit label.

*Q* Read off the recorded CC50 for CS(=O)(=O)c1cnc(NC(=O)c2ccccc2O)s1
*A* 53

* * *

Experimental details: Cytotoxicity by neutral red dye uptake in 2.2.15 cells
Assay setup: human
Entries and their CC50 at 9 days

Some entries whose results are on file:
Compound | CC50 at 9 days
Nc1ccn([C@@H]2CS[C@H](CO)O2)c(=O)n1 | 2350 µM
O=C(Nc1ncc([N+](=O)[O-])s1)c1ccccc1O [TIZ, tizoxanide] | > 100 µM
CS(=O)(=O)c1cnc(NC(=O)c2ccccc2O)s1 | > 100 µM

*Q* For the compound CC(=O)Oc1ccccc1C(=O)Nc1ncc([N+](=O)[O-])s1 [NTZ, nitazoxanide] , give its reported CC50 at 9 days.
*A* > 100 µM

* * *

System: HCV replicon genotype 1B
Experimental details: Secondary HCV replicon cell assay, genotype 1B
Assay type: cell-based, Hepatitis C Virus
Readout: pEC50
In simple prose, pEC50 is minus the logarithm base ten of a concentration in moles per litre.

*Q* State its pEC50: CS(=O)(=O)c1cnc(NC(=O)c2ccccc2O)s1
*A* 6.05

* * *

Experimental details: Cytotoxicity in HCV replicon cells in the presence of human serum
Assay setup: CC50, human serum 15 %
Readout: CC50 at 3 days

*Q* Provide measured CC50 at 3 days value, entry: O=C(Nc1ncc([N+](=O)[O-])s1)c1ccccc1O [TIZ, tizoxanide]
*A* > 100 µM

* * *

Experimental details: Primary HCV replicon cell assay, cytotoxicity
Assay setup: human, HCV replicon cells (primary assay), CC50, primary assay
Readout: CC50 at 3 days (µM)
Field: numeric (µM). Do not append units.

Line notation | Unit name | Test result
CC(=O)Oc1ccccc1C(=O)Nc1ncc(S(C)(=O)=O)s1 | µM | 20

*Q* Give a short answer stating reported CC50 at 3 days for CS(=O)(=O)c1cnc(NC(=O)c2ccccc2O)s1 .
*A* 43

* * *

Experimental details: Cytotoxicity by neutral red dye uptake in AVA5 cells
Format: cell-based
Assay setup: human, AVA5 cells (HCV replicon, sub-genomic CON1), Genotype 1b replicon
Readout: CC50 at 3 days

Compound | CC50 at 3 days
CS(=O)(=O)c1cnc(NC(=O)c2ccccc2O)s1 | 2.8 µM
C[C@@]1(O)[C@H](O)[C@@H](CO)O[C@H]1n1ccc(N)nc1=O | > 300 µM

*Q* Specify measured CC50 at 3 days for O=C(Nc1ncc([N+](=O)[O-])s1)c1ccccc1O [TIZ, tizoxanide] .
*A* 15 µM

* * *

Experimental details: Cytotoxicity in HCV replicon cells in the presence of human serum
Assay setup: CC50, human serum 30 %
Readout: CC50 at 3 days

*Q* Quickly give me recorded CC50 at 3 days for O=C(Nc1ncc([N+](=O)[O-])s1)c1ccccc1O [TIZ, tizoxanide]
*A* > 100 µM

* * *

Experimental details: Cytotoxicity in HCV replicon cells in the presence of human serum
Assay setup: CC50, human serum 20 %
Readout: CC50 at 3 days

*Q* For O=C(Nc1ncc([N+](=O)[O-])s1)c1ccccc1O [TIZ, tizoxanide] , write its CC50 at 3 days.
*A* > 100 µM

* * *

Test system: HCV replication
Experimental details: HCV replicon assay in the presence of human serum
Format: cell-based
Assay setup: Hepatitis C virus, human serum 2.5 %
Readout: EC50 (nM)
Please reply with the bare figure in nM and do not write the unit itself.

*Q* Complete the entry with EC50 for O=C(Nc1ncc([N+](=O)[O-])s1)c1ccccc1O [TIZ, tizoxanide]
*A* 480

* * *

System: HBV
Experimental details: HBV antiviral assay in confluent 2.2.15 cell cultures (HBV DNA, quantitative blot hybridization)
Type: cell-based, Hepatitis B Virus
Assay setup: 2.2.15 cells, nine daily doses; read-out: Extracellular virion DNA EC90
Readout: EC90

Would you please look over these solved cases?
Compound | EC90
O=C(Nc1ncc(Br)s1)c1ccccc1O [RM4832] | 4 µM
Cc1ccc(C(=O)Nc2ncc(Cl)s2)c(O)c1 [RM4852] | 3.3 µM
Cc1ccc(O)c(C(=O)Nc2ncc(Cl)s2)c1 [RM4850] | 0.83 µM
O=C(Nc1ncc(Cl)s1)c1ccccc1O [RM4848] | 1.7 µM
Cc1cccc(C(=O)Nc2ncc(Cl)s2)c1O [RM4851] | > 10 µM

*Q* Answer with the recorded EC90 for the compound listed here: CC(C)(C)C(=O)OCOP(=O)(COCCn1cnc2c(N)ncnc21)OCOC(=O)C(C)(C)C [ADV, adefovir dipovoxil]
*A* 3 µM
